Target: human adenosine A2b receptor (Homo sapiens (Human), UniProt P29275)
Sequence (P29275 whole entry): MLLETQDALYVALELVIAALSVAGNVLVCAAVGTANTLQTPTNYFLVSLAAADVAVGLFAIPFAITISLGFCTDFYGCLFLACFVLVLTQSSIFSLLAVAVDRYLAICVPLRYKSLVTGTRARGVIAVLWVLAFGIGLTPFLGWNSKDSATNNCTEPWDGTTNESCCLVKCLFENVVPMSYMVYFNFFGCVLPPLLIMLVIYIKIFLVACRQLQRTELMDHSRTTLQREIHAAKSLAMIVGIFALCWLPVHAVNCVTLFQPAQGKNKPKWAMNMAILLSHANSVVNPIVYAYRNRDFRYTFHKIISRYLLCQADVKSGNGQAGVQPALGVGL
Experiment: Cellular in vitro reporter gene test for A2b receptor activity (CHO-K1, CRE-luciferase, NECA stimulation)
Type: cell-based
Settings: recombinant CHO-K1 cell line, CRE-luciferase reporter, antagonism of EC50 concentration of NECA; in some cases means of several determinations, rounded to two significant figures; read-out: A2b receptor IC50
Each entry below lists one item and its recorded pIC50 value.
By convention, pIC50 is the negative base-10 log of a molar concentration.

Use these answered entries as a reference point.
Query (molecule): CCn1c(=O)c2c(C)c(CN3CCN(C(=O)OC(C)(C)C)S3(=O)=O)sc2n(CCC(F)(F)F)c1=O [Example 26] ; field requested: pIC50
7.96

Consider the molecule shown here: Cc1c(CN2CCN(C)C2=O)sc2c1c(=O)n(CC(F)(F)F)c(=O)n2CCC(F)(F)F [Example 336] What is its recorded pIC50?
8.06

What pIC50 value was documented for this molecule, COCCn1c(=O)c2c(C)c(CN3CCNC3=O)sc2n(CC2CCCO2)c1=O (racemic) [Example 233] ?
7.64

More entries:
Can you look up the measured pIC50 of CCn1c(=O)c2c(C)c(CN3C(=O)CCC3C)sc2n(CCC(F)(F)F)c1=O (racemic) [Example 10] for me?
8.15
